# Test system: corn (Zea mays)
# experimental.details: Test C postemergence, corn
# Type: in vivo
# reported.conditions: 31 g ai/ha Postemergence; visual injury, 0 to 100 scale (0 no effect, 100 complete control)
Listed next: entries and their corresponding Corn plant response rating.

compound	test.target	Corn plant response rating
Cc1c(NS(=O)(=O)C(F)(F)F)cc(N2CCC(OC3CCC3)C2=O)c(C)c1C (centres unmarked)	corn (Zea mays)	20

Per the reported corn (Zea mays) data, C=C(C)COC1CCN(c2cc(NS(=O)(=O)C(F)(F)F)c(C)cc2C)C1=O (centres unmarked) has Corn plant response rating of 20

Per the reported corn (Zea mays) data, C#CC(C)OC1CCN(c2cc(NS(=O)(=O)C(F)(F)F)c(C)cc2C)C1=O (centres unmarked) has Corn plant response rating of 60

Per the reported corn (Zea mays) data, Cc1cc(C)c(N(COC(=O)C(C)(C)C)S(=O)(=O)C(F)(F)F)cc1N1CCC(OCC2CC2)C1=O (centres unmarked) has Corn plant response rating of 20

Per the reported corn (Zea mays) data, Cc1cc(C)c(N2CCC(OCC3CCCO3)C2=O)cc1NS(=O)(=O)C(F)(F)F (centres unmarked) has Corn plant response rating of 20
